Every entry's value here was drawn from paper PMC3082038.

Procedure details: Plasma pharmacokinetics of TSU-68 in phase I patients
Type: in vivo, human
Experimental parameters: human, plasma, oral, 200 mg/m2, T max, t.i.d. after meal, 1st dose, 200 mg/m^2, n=6, mean ± SD
Measured metric: Tmax (h)
Express it in h; write the number only.

What value of Tmax has been recorded for this entry: Cc1[nH]c(/C=C2\C(=O)Nc3ccccc32)c(C)c1CCC(=O)O [TSU-68]
3.08

###

Procedure details: Plasma pharmacokinetics of TSU-68 in phase I patients
Assay type: in vivo, human
Experimental parameters: human, plasma, oral, 200 mg/m2, T 1/2, t.i.d. after meal, 2nd dose, 200 mg/m^2, N = 2, mean
Measured metric: half-life (h)
Your answer is read as h, so omit the unit and give the number.

I am curious: what half-life value has been reported for `Cc1[nH]c(/C=C2\C(=O)Nc3ccccc32)c(C)c1CCC(=O)O` ?
2.99
